- TARGET OF ASSAY: ALX4 R216A (mouse cDNA (human protein sequence …, UniProt O35137 158-291, R204A))
- Sequence (O35137 158-291 R204A): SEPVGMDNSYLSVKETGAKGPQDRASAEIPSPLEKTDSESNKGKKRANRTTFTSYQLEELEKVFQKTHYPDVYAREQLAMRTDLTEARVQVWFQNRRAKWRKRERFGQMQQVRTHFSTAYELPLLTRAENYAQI
- METHOD: ITC
MEASUREMENT KIND: Kd (nM)

In [3]: df
Out[3]:
                                     binder  measurement_kind  units_symbol  reported_measurement
0  14-mer monomer site ITC duplex (dsDNA) DNA 1: CGCTAATTAGCTCG DNA 2: CGAGCTAATTAGCG                Kd            nM                  15.2
